Where do these numbers come from? They come from the Immune Epitope Database (IEDB).

target: HLA-B*15:17; experiment: IEDB peptide-MHC binding, purified MHC/competitive/fluorescence; filed as Kd, often an IC50 or EC50 that approximates it; bounds were set here for any values at or beyond the usual limits of such assays; conditions: source organism: Araucaria virus
pKd: −log10 of the molar value.
readoutName: pKd

1. FLAAECPFL :: ≤ 4.70

###

target: HLA-B*40:02; experiment: IEDB peptide-MHC binding, purified MHC/competitive/radioactivity; filed as Kd, often an IC50 or EC50 that approximates it; bounds were set here for any values at or beyond the usual limits of such assays; details: source organism: Mammarenavirus lassaense
readoutName: Kd (nM)

1) FEKHILPFMS :: 672

###

molecular target: HLA-B*51:01; test: IEDB peptide-MHC binding, purified MHC/competitive/fluorescence; filed as Kd, often an IC50 or EC50 that approximates it; bounds were set here for any values at or beyond the usual limits of such assays; details: source organism: Araucaria virus
readoutName: Kd

1. FLAAECPFL :: ≥ 20 µM

###

molecular target: HLA-B*35:01; assay: IEDB peptide-MHC binding, purified MHC/competitive/fluorescence; filed as Kd, often an IC50 or EC50 that approximates it; bounds were set here for any values at or beyond the usual limits of such assays; conditions: source organism: Mycobacterium tuberculosis H37Rv
pKd: −log10 of the molar value.
readoutName: pKd

1. YVRTNGASY :: 7.19

###

molecular target: HLA-C*06:02; test: IEDB peptide-MHC binding, purified MHC/competitive/fluorescence; filed as Kd, often an IC50 or EC50 that approximates it; bounds were set here for any values at or beyond the usual limits of such assays; conditions: source organism: Vibrio vulnificus YJ016
readoutName: Kd

1) YLRKHIRAL :: 482 nM

###

molecular target: HLA-B*08:01; experiment: IEDB peptide-MHC binding, purified MHC/competitive/fluorescence; filed as Kd, often an IC50 or EC50 that approximates it; bounds were set here for any values at or beyond the usual limits of such assays; settings: source organism: Coxiella burnetii RSA 493
readoutName: Kd (µM)

1) EIYRTLYGL :: 7

###

molecular target: HLA-A*03:01; assay: IEDB peptide-MHC binding, purified MHC/competitive/radioactivity; filed as Kd, often an IC50 or EC50 that approximates it; bounds were set here for any values at or beyond the usual limits of such assays; settings: source organism: Mammarenavirus machupoense
pKd: −log10 of the molar value.
readoutName: pKd

1) SNIQFNISK :: 5.31

###

target: HLA-A*68:02; assay: IEDB peptide-MHC binding, purified MHC/competitive/fluorescence; bounds were set here for any values at or beyond the usual limits of such assays; settings: source organism: Pan troglodytes
pIC50: −log10 of the molar value.
readoutName: pIC50

1) RPPYSSYGY :: ≤ 4.70

###

biological target: HLA-A*02:01; assay: IEDB peptide-MHC binding, purified MHC/direct/fluorescence; filed as Kd, often an IC50 or EC50 that approximates it; bounds were set here for any values at or beyond the usual limits of such assays; conditions: source organism: Cryptosporidium parvum
readoutName: Kd (µM)

1) KLIQIEKVL :: 3.25

###

target: HLA-B*18:01; assay: IEDB peptide-MHC binding, purified MHC/direct/fluorescence; filed as Kd, often an IC50 or EC50 that approximates it; bounds were set here for any values at or beyond the usual limits of such assays; settings: source organism: Camelpox virus CMS
pKd: −log10 of the molar value.
readoutName: pKd

1. YYKDDISYF :: ≤ 4.70
